Biological target: A2B receptor (Homo sapiens)
Construct: host or cells: CHO-K1 (co-expressing Gα15)
Sequence (P29275 whole entry): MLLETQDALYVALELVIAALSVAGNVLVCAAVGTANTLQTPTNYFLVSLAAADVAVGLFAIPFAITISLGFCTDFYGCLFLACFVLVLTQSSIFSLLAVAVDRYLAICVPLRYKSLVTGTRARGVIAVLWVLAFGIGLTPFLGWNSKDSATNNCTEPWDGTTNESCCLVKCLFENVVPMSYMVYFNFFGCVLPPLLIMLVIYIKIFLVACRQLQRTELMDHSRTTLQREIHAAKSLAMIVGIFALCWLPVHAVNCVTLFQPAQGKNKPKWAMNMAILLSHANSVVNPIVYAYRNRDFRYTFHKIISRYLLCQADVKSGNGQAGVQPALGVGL
Assay: Test 1: inhibitory activity to the A2B receptor, cAMP HTRF in CHO-K1/ADORA2B/Gα15 cells, NECA 10 nM
Assay type: cell-based
property: IC50 (µM)
Numbers only, in µM.

> print(dat)
                                   molecule  property  endpoint.value
1  Cc1c(C#N)cccc1-c1nc(N)c(F)c(-c2cn(Cc3ccn(C4CCOCC4)n3)nn2)n1      IC50           0.005
2  Cc1c(C#N)cccc1-c1nc(N)c(F)c(-c2cn(Cc3ccn(C(C)(C)CO)n3)nn2)n1      IC50           0.002

Field: IC50. Fill in for each record below.
1. Cc1c(C#N)cccc1-c1nc(N)c(F)c(-c2cn(Cc3cccc(C(C)(O)C(F)(F)F)n3)nn2)n1 (stereo not shown)
2. Cc1c(C#N)cccc1-c1nc(N)c(F)c(-c2cn(Cc3cnn(C)n3)nn2)n1
3. Cc1c(C#N)cccc1-c1nc(N)c(F)c(-c2cn(Cc3cccc(N4CCN(C)CC4)n3)nn2)n1
4. Cc1c(C#N)cccc1-c1nc(N)c(F)c(-c2cn(Cc3cccc(CN4CCN(C)CC4)n3)nn2)n1
5. Cc1c(C#N)cccc1-c1nc(N)c(F)c(-c2cn(Cc3ccn(CC#N)n3)nn2)n1

# output
0.023
0.024
0.014
0.023
0.005

* * *

Biological target: A2B receptor (Homo sapiens)
Construct: host or cells: CHO-K1 (co-expressing Gα15)
Experiment: Test 1: inhibitory activity to the A2B receptor, cAMP HTRF in CHO-K1/ADORA2B/Gα15 cells, NECA 10 nM
Assay type: cell-based
Would you kindly list IC50 for each of these compounds?
Numbers only, in µM.

A selection of reference data follows.
> print(dat)
                                   compound  property  endpoint.value
1  Cc1c(C#N)cccc1-c1nc(N)c(F)c(-c2cn(Cc3ccn(CC4CC4)n3)nn2)n1      IC50           0.007
2  Cc1c(C#N)cccc1-c1nc(N)c(F)c(-c2cn(Cc3cccc(C4(O)CCC4)n3)nn2)n1      IC50           0.004

Hey, quick one: what's IC50 for each of these?
1. Cc1c(C#N)cccc1-c1nc(N)c(F)c(-c2cn(Cc3ccn(CC4CCCO4)n3)nn2)n1 (centres unmarked)
2. Cc1c(C#N)cccc1-c1nc(N)c(Cl)c(-c2cnn(Cc3ccn(C)n3)c2)n1
3. Cc1c(C#N)cccc1-c1nc(N)c(F)c(-c2cn(Cc3cccc(C(F)F)n3)nn2)n1

# output
[0.007, 0.005, 0.005]

Measured values drawn from patent US20230145793A1 for this set.
